- Experimental system: T1, human PD-L1-Fc protein (human, UniProt Q9NZQ7 19-238)
- T1 construct: coating antigen of the ELISAs; also called rhPD-L1-Fc; not shown: Fc
- T1 sequence (Q9NZQ7 19-238 limits assumed): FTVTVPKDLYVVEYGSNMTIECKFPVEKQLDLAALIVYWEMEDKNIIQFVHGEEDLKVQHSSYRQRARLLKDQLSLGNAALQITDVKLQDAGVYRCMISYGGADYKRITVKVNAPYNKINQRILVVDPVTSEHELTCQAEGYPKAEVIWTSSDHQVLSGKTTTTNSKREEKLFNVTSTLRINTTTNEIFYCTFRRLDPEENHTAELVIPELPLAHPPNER
- Run description: ELISA, antibody titrated on coated human PD-L1-Fc, OD 450nm; upper left panel
In this section, each of the binders is paired with its reported EC50.
// note: answer is a bare numeric in µg/mL

Worked set:
Binder	EC50 (µg/mL)
Hu67F3G7-5 (antibody, V domains shown, humanized) VH: EVQLVQSGAEVKKPGASVKVSCKASGYIFTDFWVSWVRQAPGKGLEWIGEIYPNSGVSRYNEKFKGRVTMTVDKSISTAYMELSRLRSDDTAVYYCTKYFGYTYWFGYWGQGTLVTVSS VL: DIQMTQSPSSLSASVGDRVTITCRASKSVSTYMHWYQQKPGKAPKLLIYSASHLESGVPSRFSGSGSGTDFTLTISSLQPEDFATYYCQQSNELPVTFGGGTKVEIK	0.0133
Hu67F3G7-6 (antibody, V domains shown, humanized) VH: EVQLVQSGAEVKKPGASVKVSCKASGYTFTDFWVSWVRQAPGQGLEWMGEIYPNSGVSRYNEKFKGRVTMTVDKSISTAYMELSRLRSDDTAVYYCARYFGYTYWFGYWGQGTLVTVSS VL: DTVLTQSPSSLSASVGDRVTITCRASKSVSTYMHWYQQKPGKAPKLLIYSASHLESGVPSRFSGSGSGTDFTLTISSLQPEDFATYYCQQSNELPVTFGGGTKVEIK	0.0118
Hu67F3G7-1 (antibody, V domains shown, humanized) VH: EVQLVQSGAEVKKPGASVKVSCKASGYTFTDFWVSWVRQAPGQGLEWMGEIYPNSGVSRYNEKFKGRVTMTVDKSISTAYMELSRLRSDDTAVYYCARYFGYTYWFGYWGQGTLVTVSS VL: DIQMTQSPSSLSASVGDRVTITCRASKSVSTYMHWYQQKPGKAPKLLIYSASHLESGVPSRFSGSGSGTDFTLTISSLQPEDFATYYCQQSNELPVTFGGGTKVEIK	0.0125
Hu89C10H8-4 (antibody, V domains shown, humanized) VH: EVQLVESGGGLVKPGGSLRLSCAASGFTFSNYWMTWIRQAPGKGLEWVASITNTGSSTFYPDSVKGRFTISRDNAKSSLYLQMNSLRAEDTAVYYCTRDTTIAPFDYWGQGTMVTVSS VL: DIQMTQSPSSLSASVGDRVTITCKASQNLNEYLNWYQQKPGKAPKRLIYKTNTLQAGVPSRFSGSGSGTDYTLTISSLQPEDFATYYCSQYNSGNTFGQGTKLEIK	0.00683

Inquiry: Give its EC50 value. Item: Hu89C10H8-5 (antibody, V domains shown, humanized) VH: EVQLVESGGGLVKPGGSLRLSCAASGFTFSNYWMTWVRQAPGKGLEWVASITNTGSSTFYPDSVKGRFTISRDNAKNSLYLQMNSLRAEDTAVYYCARDTTIAPFDYWGQGTMVTVSS VL: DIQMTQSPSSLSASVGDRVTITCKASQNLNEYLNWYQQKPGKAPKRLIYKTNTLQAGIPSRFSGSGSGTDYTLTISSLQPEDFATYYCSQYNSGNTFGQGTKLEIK
Reply text: 0.00637
